# assayExplanation: Quantitative High-Throughput drug screen in 47 multiple myeloma cell lines against the NCATS MIPE library collection: VP6_DJ cell viability assay (AID 1919867); further: potency means the concentration at half of the fitted maximal effect; nearly all actives have a fitted effect of over 40% in size
# conditions: ATP luminescence, 48 h; series mostly up to 45.8 µM
Results filed as inconclusive are left out. Activity calls are given as the source filed them. The call rests on the fitted dose curve; in most records, active means well fitted cell-killing curve with a large enough effect; inconclusive means small, poorly fitted or top-dose-only effect, or effect the other way; inactive means no such curve, though single readings can be large or run the other way.
Quick reference: Potency of the listed items.

compound	Potency
COc1ccc(C(=O)c2c(C)n(CCN3CCOCC3)c3cc(I)ccc23)cc1	6620 nM (active)
COCC1(CO)C(=O)C2CCN1CC2 (configuration not stated)	4180 nM (active)
CC1(N2CCC(n3c([C@@H]4CCCNC4)nc4ccccc43)CC2)CCCCCCC1	14800 nM (active)
O=C(Nc1ccncc1)C(=O)c1cn(Cc2ccc(Cl)cc2)c2ccccc12	23.5 nM (active)
C[C@@H]1CC[C@@]2(OC1)O[C@H]1C[C@H]3[C@@H]4CC=C5C[C@@H](O[C@@H]6O[C@H](CO)[C@@H](O[C@@H]7O[C@@H](C)[C@H](O)[C@@H](O)[C@@H]7O)[C@H](O)[C@@H]6O[C@@H]6O[C@@H](C)[C@H](O)[C@@H](O)[C@@H]6O)CC[C@]5(C)[C@@H]4CC[C@]3(C)[C@@H]1[C@H]2C	2960 nM (active)
C[C@@H]1O[C@@H](O[C@@H]2C=C3CC[C@@H]4[C@@H](CC[C@]5(C)[C@H](c6ccc(=O)oc6)CC[C@@]45O)[C@@]3(C)CC2)[C@H](O)[C@H](O)[C@H]1O	11.8 nM (active)
Cc1ccccc1-n1c(Cn2cnc3c(N)ncnc32)nc2cccc(C)c2c1=O	187 nM (active)

====

# assayExplanation: Quantitative High-Throughput drug screen in 47 multiple myeloma cell lines against the NCATS MIPE library collection: OCIMY5_PLB cell viability assay (AID 1918988); further: nearly all actives have a fitted effect of over 65% in size
# conditions: OCI-MY5 myeloma viability, ATP luminescence, 48 h; series mostly up to 45.8 µM
Results filed as inconclusive are left out. Active and inactive are the calls of the source. Calls follow the shape of the dose curve; as a rule, active = well fitted cell-killing curve with a large enough effect; inconclusive = small, poorly fitted or top-dose-only effect, or effect the other way; inactive = no such curve, though single readings can be large or run the other way.
Classes used: active, inactive

compound	qualitativeLabel
COc1ccc2c(c1)[C@]13CCCCC1C(C2)N(C)CC3 (stereo partly drawn)	inactive
O=S(=O)(F)Cc1ccccc1	inactive
CSCC[C@@H](NC(=O)[C@@H](Cc1ccccc1)NC(=O)CNC(=O)CNC(=O)[C@@H](N)Cc1ccc(O)cc1)C(=O)O	inactive
CC[C@H]1C=CC=CC[C@@H](C)[C@H](O)[C@@](C)(O)C(=O)[C@@H](C)[C@H](O)[C@@H](C)C(=O)[C@@H](C)[C@H](O)[C@@H](C)C=CC(=O)O[C@@H]2[C@@H](C)[C@H](CC1)O[C@]1(CC[C@H](C)[C@H](C[C@@H](C)O)O1)[C@H]2C	active
COCC1(CO)C(=O)C2CCN1CC2 (stereo not drawn)	active
CN1CCN(c2ccc([N+](=O)[O-])c3no[n+]([O-])c23)CC1	active
COC1=C[C@@H]2[C@@H]3Cc4ccc(OC)c(O)c4[C@]2(CCN3C)CC1=O	active
CC=C(C)C(=O)N[C@@H](c1ccccc1)[C@@H](O)C(=O)O[C@H]1C[C@@]2(O)[C@@H](OC(=O)c3ccccc3)[C@@H]3[C@]4(OC(C)=O)CO[C@@H]4C[C@H](O)[C@@]3(C)C(=O)[C@H](OC(C)=O)C(=C1C)C2(C)C	inactive
